- Study target: T1, Chymase, from human skin (human, UniProt P23946 22-247)
- T1 sequence (looked up): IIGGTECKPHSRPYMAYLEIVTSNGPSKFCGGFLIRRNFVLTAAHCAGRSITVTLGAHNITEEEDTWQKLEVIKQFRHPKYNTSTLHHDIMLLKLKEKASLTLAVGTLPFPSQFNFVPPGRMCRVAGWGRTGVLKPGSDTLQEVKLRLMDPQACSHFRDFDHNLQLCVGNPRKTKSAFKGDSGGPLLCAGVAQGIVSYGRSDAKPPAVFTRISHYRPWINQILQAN
- Assay text: cell-based or functional assay
Entries annotated with measured % inhibition at 100 µM

# Binder, Measurement unit, % inhibition at 100 µM
measured = [
    ("FCTKSDPPICS (HELM PEPTIDE1{F.C.T.K.S.D.P.P.I.C.S.[dD].P}$PEPTIDE1,PEPTIDE1,2:R3-10:R3|PEPTIDE1,PEPTIDE1,1:R1-13:R2$$$V2.0; SMILES CC[C@H](C)[C@@H]1NC(=O)[C@@H]2CCCN2C(=O)[C@@H]2CCCN2C(=O)[C@H](CC(=O)O)NC(=O)[C@H](CO)NC(=O)[C@H](CCCCN)NC(=O)[C@H]([C@@H](C)O)NC(=O)[C@@H]2CSSC[C@H](NC1=O)C(=O)N[C@@H](CO)C(=O)N[C@H](CC(=O)O)C(=O)N1CCC[C@H]1C(=O)N[C@@H](Cc1ccccc1)C(=O)N2) [Example 46]", "%", 10.2),
    ("FCTKSDPPICN (HELM PEPTIDE1{F.C.T.K.S.D.P.P.I.C.N.[dP].P}$PEPTIDE1,PEPTIDE1,2:R3-10:R3|PEPTIDE1,PEPTIDE1,1:R1-13:R2$$$V2.0; SMILES CC[C@H](C)[C@@H]1NC(=O)[C@@H]2CCCN2C(=O)[C@@H]2CCCN2C(=O)[C@H](CC(=O)O)NC(=O)[C@H](CO)NC(=O)[C@H](CCCCN)NC(=O)[C@H]([C@@H](C)O)NC(=O)[C@@H]2CSSC[C@H](NC1=O)C(=O)N[C@@H](CC(N)=O)C(=O)N1CCC[C@@H]1C(=O)N1CCC[C@H]1C(=O)N[C@@H](Cc1ccccc1)C(=O)N2) [Example 3]", "%", 1),
]
